Molecular target: H+/K+ ATPase (Oryctolagus cuniculus, UniProt P27112)
Construct: The stomach tissue of the rabbit was separated; from tissue; host or cells: rabbit stomach fundus mucosa, microsomal/Ficoll membrane fraction
Sequence (P27112 whole entry): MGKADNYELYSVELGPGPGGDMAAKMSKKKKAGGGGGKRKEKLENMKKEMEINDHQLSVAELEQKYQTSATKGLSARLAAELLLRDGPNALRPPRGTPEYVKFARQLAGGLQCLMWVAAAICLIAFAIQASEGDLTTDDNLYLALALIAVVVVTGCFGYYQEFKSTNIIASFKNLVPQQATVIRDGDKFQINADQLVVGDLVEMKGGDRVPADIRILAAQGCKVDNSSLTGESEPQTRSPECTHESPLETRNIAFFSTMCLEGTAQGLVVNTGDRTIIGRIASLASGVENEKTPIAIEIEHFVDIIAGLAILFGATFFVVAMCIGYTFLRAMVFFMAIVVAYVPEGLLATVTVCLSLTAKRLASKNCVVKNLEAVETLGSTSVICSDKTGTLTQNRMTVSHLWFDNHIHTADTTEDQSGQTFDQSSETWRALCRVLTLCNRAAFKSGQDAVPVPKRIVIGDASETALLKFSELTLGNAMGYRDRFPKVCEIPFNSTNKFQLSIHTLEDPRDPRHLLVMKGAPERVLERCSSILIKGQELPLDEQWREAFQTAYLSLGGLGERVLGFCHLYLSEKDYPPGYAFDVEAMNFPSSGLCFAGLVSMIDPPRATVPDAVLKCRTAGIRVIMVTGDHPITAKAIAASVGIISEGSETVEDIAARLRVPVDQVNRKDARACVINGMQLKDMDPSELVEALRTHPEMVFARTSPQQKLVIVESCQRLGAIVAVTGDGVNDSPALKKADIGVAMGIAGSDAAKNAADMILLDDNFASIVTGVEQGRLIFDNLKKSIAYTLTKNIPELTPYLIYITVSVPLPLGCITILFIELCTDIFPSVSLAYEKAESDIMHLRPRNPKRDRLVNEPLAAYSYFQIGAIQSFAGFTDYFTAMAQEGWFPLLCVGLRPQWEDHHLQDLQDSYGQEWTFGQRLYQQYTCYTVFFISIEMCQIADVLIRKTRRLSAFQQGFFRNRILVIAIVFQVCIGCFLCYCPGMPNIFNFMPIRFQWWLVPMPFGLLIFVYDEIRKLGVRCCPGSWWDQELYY
Sequence (P18597 whole entry partner): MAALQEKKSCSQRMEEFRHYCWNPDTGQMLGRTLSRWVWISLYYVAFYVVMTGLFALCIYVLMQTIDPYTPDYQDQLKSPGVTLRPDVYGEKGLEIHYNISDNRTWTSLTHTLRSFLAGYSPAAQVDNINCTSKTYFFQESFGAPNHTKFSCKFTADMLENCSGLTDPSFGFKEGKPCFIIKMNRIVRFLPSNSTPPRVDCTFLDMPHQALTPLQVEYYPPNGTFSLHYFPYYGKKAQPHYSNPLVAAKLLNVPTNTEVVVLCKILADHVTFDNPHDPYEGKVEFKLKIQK
Assay: Determination of compounds' inhibition of H+/K+ ATPase enzyme activity (malachite green, OD 620 nm)
Type: biochemical
Conditions: enzyme extracted from rabbit stomach mucosa; pH 6.5; 500 μM ATP; 37° C.; read-out: IC50(μM) inhibition rate (IC50) of H+/K+ ATPase enzyme activity
OBSERVED PROPERTY: IC50 (µM)

Please review the following examples before continuing.
CN1Cc2nn(Cc3cccc(C4=CCCOC4)c3)c(-c3ccccc3F)c2C1: 0.197
CN1Cc2nn(Cc3ccc(O)c(C4=CCOCC4)c3)c(-c3ccccc3F)c2C1: 0.233
CN1Cc2nn(Cc3cc(O)cc(C4=CCOCC4)c3)c(-c3ccccc3F)c2C1: 0.0811
CN1Cc2nn(Cc3cccc(C4=CCOCC4)c3)c(-c3ccccc3F)c2C1: 0.0883
CN1Cc2nn(Cc3cc(O)cc(C4=CCCOC4)c3)c(-c3ccccc3F)c2C1: 0.113

[P] CN1Cc2nn(Cc3cccc(C4=CCNCC4)c3)c(-c3ccccc3F)c2C1
[Q] CN1Cc2nn(Cc3cc(Cl)cc(C4=CCOCC4)c3)c(-c3ccccc3F)c2C1
[R] CN1Cc2nn(Cc3cccc(C4=CCOCC4)c3)c(-c3cccnc3F)c2C1
[S] CN1Cc2nn(Cc3ccc(O)c(C4=CCCOC4)c3)c(-c3ccccc3F)c2C1
Query string: Rank order required: IC50, descending. Use the labels to give the requested order.
Result string: R, P, Q, S
